biological target: GOPC, Q9HD26; experiment: holdup assay; parameters: key: below the threshold = too weak to quantify, mostly under pKd 3.1 to 4; conditions: plain residues with an end cap or a label only (N-terminal biotin on a linker: ahx)
measurement.name: pKd

binder="PKMKLNETSF [SHKBP1, Q8TBC3]" measurement_name=pKd result="below the threshold"
binder="HSATSVHTSV [MTMR1, Q13613]" measurement_name=pKd result=3.75
binder="VNENQKEYFF [CNTNAP4, Q9C0A0]" measurement_name=pKd result="below the threshold"
binder="KDECVIATEV [DLL1, O00548]" measurement_name=pKd result="below the threshold"
